target.of.assay: T1, recombinant human β-Klotho (human, UniProt Q86Z14 53-996, limits assumed, biotinylated in the AlphaScreen assays (site not stated))
T1 construct: also called rhβ-klotho; huβKlotho-His
T1 sequence: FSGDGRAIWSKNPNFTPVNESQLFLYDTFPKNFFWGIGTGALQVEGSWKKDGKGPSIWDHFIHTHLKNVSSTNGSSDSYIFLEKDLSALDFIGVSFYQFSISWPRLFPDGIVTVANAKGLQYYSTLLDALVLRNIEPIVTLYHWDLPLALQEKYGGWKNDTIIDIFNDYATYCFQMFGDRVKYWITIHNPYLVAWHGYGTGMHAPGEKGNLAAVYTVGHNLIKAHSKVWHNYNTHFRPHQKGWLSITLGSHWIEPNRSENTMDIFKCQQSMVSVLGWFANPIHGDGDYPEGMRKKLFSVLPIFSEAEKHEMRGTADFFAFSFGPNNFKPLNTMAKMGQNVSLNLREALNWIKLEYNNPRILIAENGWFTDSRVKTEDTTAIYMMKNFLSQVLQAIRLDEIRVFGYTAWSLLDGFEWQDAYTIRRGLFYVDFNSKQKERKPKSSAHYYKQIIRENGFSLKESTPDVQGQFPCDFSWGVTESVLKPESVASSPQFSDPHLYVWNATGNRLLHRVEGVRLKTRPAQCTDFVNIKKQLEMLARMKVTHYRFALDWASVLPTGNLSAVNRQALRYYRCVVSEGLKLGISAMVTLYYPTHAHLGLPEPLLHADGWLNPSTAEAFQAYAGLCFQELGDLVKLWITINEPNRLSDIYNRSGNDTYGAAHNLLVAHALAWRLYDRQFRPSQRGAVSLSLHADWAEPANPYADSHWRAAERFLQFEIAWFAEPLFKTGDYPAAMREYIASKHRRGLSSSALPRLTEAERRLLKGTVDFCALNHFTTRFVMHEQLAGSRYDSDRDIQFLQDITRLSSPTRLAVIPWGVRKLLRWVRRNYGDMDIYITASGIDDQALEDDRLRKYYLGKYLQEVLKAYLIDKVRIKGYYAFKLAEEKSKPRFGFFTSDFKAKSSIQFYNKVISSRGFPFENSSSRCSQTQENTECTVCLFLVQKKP
assay.name: phage panning
measurement.label: binding result

| binder | endpoint.result |
| --- | --- |
| CSRAHFHCLSGECIHHHWRCDGGPDCKDKSDEENCPTKRPEEV (designed binder) [β-Klotho-binding monomer M41] | binds |
| CRSSEFPCHGYSTCISLSLLCDGVDDCADNSDEESCRAAGHT (designed binder) [β-Klotho-binding monomer M34] | binds |
| CVPNQFQCGSGRCLPHPLGCDGVDDCLDGSDEASCAPPT (designed binder) [β-Klotho-binding monomer M26] | binds |
| CVSDEFPCRDNNICVLLHLLCDGVDDCLDSSDETGCAKPT (designed binder) [β-Klotho-binding monomer M27] | binds |
| CSAFEFHCLSGECIHSSWRCDWDLDCKDHPDEVMCALEA (designed binder) [β-Klotho-binding monomer M39] | binds |

Exercise: Quickly give me recorded binding result for CSAFEFHCLSGECIHSSWRCDMDWDCKDQPDQLWCALET (designed binder) [β-Klotho-binding monomer M37]
Solution: binds

Hey, just so you know, these numbers are from patent US20130197191A1.
